tested on: Colon adenocarcinoma 38 (mouse colon adenocarcinoma); assay: Tumor weight of transplanted Colon adenocarcinoma 38 in C57BL/6 mice; type: in vivo; conditions: Table 15; day 4 after compound administration; hTGFβ and hEGF 100 μg/Kg with each compound having antitumor action
METRIC: Tumor weight ratio(%)
Provide only the numeric value, understood in %.

| COMPOUND | TARGET OR TEST SYSTEM | Tumor weight ratio(%) |
| --- | --- | --- |
| N.N.[Cl][Pt][Cl] [Cisplatin, cisplatin] | Colon adenocarcinoma 38 (mouse colon adenocarcinoma) | 139.8 |
| O=c1[nH]c(=O)n(C2CCCO2)cc1F (centres unmarked) [Tegafur, 1-(2-tetrahydrofuryl)-5-fluorouracil] | Colon adenocarcinoma 38 (mouse colon adenocarcinoma) | 118.0 |
| CO[C@@]12[C@H](COC(N)=O)C3=C(C(=O)C(C)=C(N)C3=O)N1C[C@@H]1N[C@@H]12 [MMC, mitomycin C] | Colon adenocarcinoma 38 (mouse colon adenocarcinoma) | 101.1 |

// recorded Tumor weight ratio(%) for O=P1(N(CCCl)CCCl)NCCCO1 (centres unmarked) [Cyclophosphamide, cyclophosphamide] : 90.6

According to the records, this compound O=c1[nH]cc(F)c(=O)[nH]1 [5-FU, 5-fluorouracil] displays Tumor weight ratio(%) of 103.3

----------
tested on: Colon adenocarcinoma 38 (mouse colon adenocarcinoma); assay: Tumor weight of transplanted Colon adenocarcinoma 38 in C57BL/6 mice; assay type: in vivo; conditions: Table 12; day 4 after compound administration; weight before administration = 100; Tegafur 400, 5-FU 150, Mitomycin-C 5, Cisplatin 5 mg/Kg, hIGF-II 50 μg/Kg subcutaneous; average ± standard error of 8-10 mice
METRIC: Tumor weight ratio(%)
Give the number; % is assumed, so skip it.

| COMPOUND | VALUE |
| --- | --- |
| CO[C@@]12[C@H](COC(N)=O)C3=C(C(=O)C(C)=C(N)C3=O)N1C[C@@H]1N[C@@H]12 [MMC, mitomycin C] | 95.8 |
| N.N.[Cl][Pt][Cl] [Cisplatin, cisplatin] | 145.6 |
| O=c1[nH]cc(F)c(=O)[nH]1 [5-FU, 5-fluorouracil] | 84.5 |

Next up:
Just so you know, measured Tumor weight ratio(%) for O=c1[nH]c(=O)n(C2CCCO2)cc1F (stereo not shown) [Tegafur, 1-(2-tetrahydrofuryl)-5-fluorouracil] came out at 95.2
